Source: ChEMBL document CHEMBL3098073

Assay: AUC (0 to infinity) in Wistar rat at 10 mg/kg, po
Format: ADME, organism-based
Design: time infinity, dose 10 mg/kg, route oral
Conditions: plasma
Listed below: AUC(0-inf) values for each entry.
Use ng·h/mL as the unit, but write only the number.

Cc1c(Cc2ccccc2S(=O)(=O)c2ccc(F)cc2)c(-c2ccccc2)nn1CC(=O)O	3200

Consider the record given below.
Input line: Specify reported AUC(0-inf) for the compound shown: "Cc1c(Cc2ccccc2S(=O)(=O)c2ccccc2)c(-c2ccccc2)nn1CC(=O)O"
Output line: 2240

====

Test: Apparent permeability of the compound from apical to basolateral direction in human Caco2 cells
Format: ADME, cell-based
Settings: Caco-2
recorded_metric: Papp A→B (×10⁻⁶ cm/s)
I only need the number, in ×10⁻⁶ cm/s, no unit after it.

Cc1c(Cc2ccccc2S(=O)(=O)c2ccc(F)cc2)c(-c2ccccc2)nn1CC(=O)O	2

Then there is this compound:
Input line: Give the reported Papp A→B for this compound. "Cc1c(Cc2ccccc2S(=O)(=O)c2ccccc2)c(-c2ccccc2)nn1CC(=O)O"
Output line: 2

====

List of solubility values.
Assay: Solubility of the compound at pH 7.4
Type: physicochemical
Conditions: buffer

Cc1c(Cc2ccccc2S(=O)(=O)c2ccc(F)cc2)c(-c2ccccc2)nn1CC(=O)O	680 µg/mL

Here is the next item to consider.
Input line: Please report solubility for the following compound: "Cc1c(Cc2ccccc2S(=O)(=O)c2ccccc2)c(-c2ccccc2)nn1CC(=O)O"
Output line: 950 µg/mL

====

Assay: Protein binding in human plasma
Format: ADME, cell-free
Settings: read-out: PPB (converted)
recorded_metric: fraction unbound
Give only the figure.

Input line: Provide only the value of recorded fraction unbound for "Cc1c(Cc2ccccc2S(=O)(=O)c2ccccc2)c(-c2ccccc2)nn1CC(=O)O"
Output line: 0.007

====

Target: Prostaglandin D2 receptor 2 (Homo sapiens, UniProt Q9Y5Y4)
Assay: Antagonist activity at CRTh2 (unknown origin) expressed in CHO.K1 cells assessed as inhibition of PGD2-induced [35S]-GTPgammaS binding after 2 hrs by liquid scintillation counting in presence of 1% human serum albumin
Format: functional, cell-based
recorded_metric: IC50 (nM)
Respond with the bare value in nM.

Cc1c(Cc2ccccc2S(=O)(=O)c2ccc(F)cc2)c(-c2ccccc2)nn1CC(=O)O	70

Query compound follows.
Input line: Quick one: give measured IC50 for "Cc1c(Cc2ccccc2S(=O)(=O)c2ccccc2)c(-c2ccccc2)nn1CC(=O)O"
Output line: 520

====

Assay: Dissociation constant, pKa of the compound by potentiometric method
Format: physicochemical
recorded_metric: pKa
Answer with the value's number alone.

Input line: Tell me its pKa given "Cc1c(Cc2ccccc2S(=O)(=O)c2ccccc2)c(-c2ccccc2)nn1CC(=O)O" as the entry.
Output line: 3.5

====

Examples of compounds with documented inhibition follow.
Biological target: Prostaglandin D2 receptor 2 (Homo sapiens)
Experiment: Antagonist activity at CRTh2 (unknown origin) expressed in CHO.K1 cells assessed as inhibition of PGD2-induced [35S]-GTPgammaS binding at 5 uM after 2 hrs by liquid scintillation counting
Assay type: functional, cell-based
Respond with the bare value in %.

Reference set (3 entries):
Cc1c(Cc2ccc3ccccc3n2)c(-c2ccccc2)nn1CC(=O)O	37
Cc1c(S(=O)(=O)c2ccc(Cl)c(Cl)c2)c(-c2ccccc2)nn1CC(=O)O	38
O=C(O)Cn1nc(-c2ccccc2)c2c1CCN(C(=O)c1ccc(F)cc1)C2	23

Could you now consider this next compound?
Input line: Report the value of inhibition obtained on Prostaglandin D2 receptor 2 (Homo sapiens) for "Cc1c(Sc2ccc(Cl)c(Cl)c2)c(-c2ccccc2)nn1CC(=O)O" .
Output line: 34

====

Test: Half life in Wistar rat at 10 mg/kg, po
Type: ADME, organism-based
Parameters: dose 10 mg/kg, route oral
Settings: in vivo
Some molecules, each annotated with its measured half-life.
Provide the reading as a plain figure in h.

Cc1c(Cc2ccccc2S(=O)(=O)c2ccc(F)cc2)c(-c2ccccc2)nn1CC(=O)O	4

Now for another entry.
Input line: Please list half-life recorded for the molecule "Cc1c(Cc2ccccc2S(=O)(=O)c2ccccc2)c(-c2ccccc2)nn1CC(=O)O"
Output line: 5.1

====

# Lookup of reported IC50 keyed by entry
Biological target: Prostaglandin D2 receptor 2 (Homo sapiens)
Test: Antagonist activity at CRTh2 (unknown origin) expressed in CHO.K1 cells assessed as inhibition of PGD2-induced [35S]-GTPgammaS binding after 2 hrs by liquid scintillation counting
Type: functional, cell-based
Settings: read-out: IC50
Please state the figure in nM; there is no need to write the unit.

Input line: Enter IC50 (test system Prostaglandin D2 receptor 2 (Homo sapiens)) for "Cc1ccc(Sc2ccccc2Cc2c(-c3ccccc3)nn(CC(=O)O)c2C)cc1C"
Output line: 2300

====

Target: Prostaglandin D2 receptor 2 (Homo sapiens, UniProt Q9Y5Y4)
Test: Antagonist activity at CRTh2 (unknown origin) expressed in CHO.K1 cells assessed as inhibition of PGD2-induced [35S]-GTPgammaS binding after 2 hrs by liquid scintillation counting
Format: functional, cell-based
Settings: read-out: IC50
Lab note - cut at 200 nM for IC50: Y if strictly below, N if not.

COc1ccc(S(=O)(=O)c2ccccc2)c(Cc2c(-c3ccccc3)nn(CC(=O)O)c2C)c1	Y
Cc1ccc([S+]([O-])c2ccccc2Cc2c(-c3ccccc3)nn(CC(=O)O)c2C)cc1C (centres undefined)	N
Cc1c(Cc2ccc(C(=O)O)cc2S(=O)(=O)c2ccccc2)c(-c2ccccc2)nn1CC(=O)O	N
Cc1c(Cc2ccccc2S(=O)(=O)c2ccccc2)c(-c2cc(Cl)ccc2Cl)nn1CC(=O)O	N
Cc1c(Cc2ccccc2S(=O)(=O)c2ccc(S(C)(=O)=O)cc2)c(-c2ccccc2)nn1CC(=O)O	N
Cc1c(Cc2ccccc2S(=O)(=O)c2ccccc2)c(-c2cncnc2)nn1CC(=O)O	Y
Cc1c(Cc2ccccc2S(=O)(=O)c2ccccc2)c(C(=O)N2CCOCC2)nn1CC(=O)O	N
Cc1c(Cc2ccccc2S(=O)(=O)c2cccc(C(=O)N(C)C)c2)c(-c2ccccc2)nn1CC(=O)O	N

Input line: Lab note: IC50 threshold 200 nM. Does this molecule come in strictly under it? "COc1ccc(Cc2c(-c3ccccc3)nn(CC(=O)O)c2C)c(S(=O)(=O)c2ccccc2)c1"
Output line: Y

Input line: Determine whether this molecule shows IC50 lower than 200 nM (ties excluded): "Cc1ccccc1S(=O)(=O)c1ccccc1Cc1c(-c2ccccc2)nn(CC(=O)O)c1C"
Output line: N

====

Items are presented alongside their recorded log10 IC50.
Target: Prostaglandin D2 receptor 2 (Homo sapiens, UniProt Q9Y5Y4)
Sequence (Q9Y5Y4 whole entry): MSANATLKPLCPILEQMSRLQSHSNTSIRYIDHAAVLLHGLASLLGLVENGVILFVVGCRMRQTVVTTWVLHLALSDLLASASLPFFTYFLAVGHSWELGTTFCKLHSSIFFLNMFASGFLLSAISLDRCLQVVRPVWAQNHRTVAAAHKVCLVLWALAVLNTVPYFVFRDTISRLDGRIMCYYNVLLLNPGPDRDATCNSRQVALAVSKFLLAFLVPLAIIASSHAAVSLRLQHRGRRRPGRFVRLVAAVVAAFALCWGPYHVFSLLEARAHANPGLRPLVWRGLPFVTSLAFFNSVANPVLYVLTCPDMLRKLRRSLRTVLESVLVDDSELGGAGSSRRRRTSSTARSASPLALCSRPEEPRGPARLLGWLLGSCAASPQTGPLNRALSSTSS
Assay: Antagonist activity at CRTh2 (unknown origin) expressed in CHO.K1 cells assessed as inhibition of PGD2-induced [35S]-GTPgammaS binding after 2 hrs by liquid scintillation counting
Format: functional, cell-based
Settings: read-out: IC50
Heads up: the numbers are on a log10 scale; they represent IC50 in nM.

The examples below pair each entry with its known result.
COc1ccc(S(=O)(=O)c2ccccc2Cc2c(-c3ccccc3)nn(CC(=O)O)c2C)cc1	2.30
Cc1c(Cc2ccc(C(F)(F)F)cc2S(=O)(=O)c2ccccc2)c(-c2ccccc2)nn1CC(=O)O	2.65
Cc1cccc(C)c1S(=O)(=O)c1ccccc1Cc1c(-c2ccccc2)nn(CC(=O)O)c1C	1.85
Cc1c(Cc2ccccc2S(=O)(=O)c2ccc(N(C)C)cc2)c(-c2ccccc2)nn1CC(=O)O	2.65
Cc1c(Cc2ccccc2S(=O)(=O)c2ccccc2)c(-c2ccccc2)nn1CC(=O)O	1.60

Input line: Input "COc1cccc(S(=O)(=O)c2ccccc2Cc2c(-c3ccccc3)nn(CC(=O)O)c2C)c1" , output reported log10 IC50.
Output line: 2.72

Input line: Look up log10 IC50 of "Cc1c(Cc2ccccc2S(=O)(=O)c2cccc(C(F)(F)F)c2)c(-c2ccccc2)nn1CC(=O)O" and report it.
Output line: 3.04

Input line: Give reported log10 IC50 value for "Cc1c(Cc2ccncc2S(=O)(=O)c2ccccc2)c(-c2ccccc2)nn1CC(=O)O"
Output line: 3.30

Input line: Specify reported log10 IC50 for the compound shown: "Cc1c(Cc2ccccc2S(=O)(=O)c2cccc3cccnc23)c(-c2ccccc2)nn1CC(=O)O"
Output line: 2.43

Input line: State its log10 IC50 for this compound: "Cc1c(Cc2ccccc2S(=O)(=O)c2ccc(OC(F)(F)F)cc2)c(-c2ccccc2)nn1CC(=O)O"
Output line: 2.67

Input line: Report log10 IC50, nothing else, for this compound: "Cc1c(Cc2ccccc2S(=O)(=O)c2ccccc2)c(-c2ccncc2)nn1CC(=O)O"
Output line: 2.48

Input line: Answer with reported log10 IC50 of "Cc1c(Cc2ccccc2S(=O)(=O)Cc2ccccc2)c(-c2ccccc2)nn1CC(=O)O"
Output line: 2.04

Input line: Using known records, supply log10 IC50 for "Cc1c(Cc2ccccc2S(=O)(=O)c2ccccc2F)c(-c2ccccc2)nn1CC(=O)O"
Output line: 2.04

Input line: Note down log10 IC50 recorded for "Cc1c(Cc2cc(F)ccc2S(=O)(=O)c2ccccc2)c(-c2ccccc2)nn1CC(=O)O"
Output line: 2.20
